readout-label: log10 of IC50 (log10 of the value in nM)
# values: log10(IC50), units nM

Ask | Replicase polyprotein 1ab (Severe acute respiratory syndrome coronavirus 2) / log10 of IC50 / `CC(C)C[C@H](NC(=O)[C@@H](NC(=O)OC(C)(C)C)C(C)C)C(=O)N[C@H](C=O)C[C@@H]1CCNC1=O` : value?
Reply | -0.15

Ask | Replicase polyprotein 1ab (Severe acute respiratory syndrome coronavirus 2) / log10 of IC50 / `CO[C@H]1C[C@@H](C(=O)N[C@H](C=O)C[C@@H]2CCNC2=O)N(C(=O)[C@@H](NC(=O)OC(C)(C)C)C(C)C)C1` : value?
Reply | -0.62

Ask | Replicase polyprotein 1ab (Severe acute respiratory syndrome coronavirus 2) / log10 of IC50 / `CC(C)[C@H](NC(=O)OC(C)(C)C)C(=O)N1C[C@@H](C)C[C@H]1C(=O)N[C@H](C=O)C[C@@H]1CCNC1=O` : value?
Reply | -0.33

Ask | Replicase polyprotein 1ab (Severe acute respiratory syndrome coronavirus 2) / log10 of IC50 / `CC(C)[C@H](NC(=O)OC(C)(C)C)C(=O)N1C[C@@H]2CCC[C@@H]2[C@H]1C(=O)N[C@H](C=O)C[C@@H]1CCNC1=O` : value?
Reply | 0.70

Ask | Replicase polyprotein 1ab (Severe acute respiratory syndrome coronavirus 2) / log10 of IC50 / `CC(C)[C@H](NC(=O)OC(C)(C)C)C(=O)N1C[C@H](OC(C)(C)C)C[C@H]1C(=O)N[C@H](C=O)C[C@@H]1CCNC1=O` : value?
Reply | 0.40

Ask | Replicase polyprotein 1ab (Severe acute respiratory syndrome coronavirus 2) / log10 of IC50 / `CC(C)[C@H](NC(=O)OC(C)(C)C)C(=O)N1CCCC[C@H]1C(=O)N[C@H](C=O)C[C@@H]1CCNC1=O` : value?
Reply | 3.53

Ask | Replicase polyprotein 1ab (Severe acute respiratory syndrome coronavirus 2) / log10 of IC50 / `C[C@H](OC(C)(C)C)[C@H](NC(=O)OC(C)(C)C)C(=O)N1CCC[C@H]1C(=O)N[C@H](C=O)C[C@@H]1CCNC1=O` : value?
Reply | 0.72

Ask | Replicase polyprotein 1ab (Severe acute respiratory syndrome coronavirus 2) / log10 of IC50 / `CC(C)[C@H](NC(=O)OC(C)(C)C)C(=O)N1CCC[C@H]1C(=O)N[C@H](C=O)C[C@@H]1CCNC1=O` : value?
Reply | 0.79

====

assay: Selectivity index, ratio of CC50 for human BEAS2B cells to EC50 for antiviral activity against HCoV229E infected in BEAS-2B cells; format: toxicity, cell-based; conditions: read-out: Ratio CC50/EC50
readout-label: selectivity ratio

Ask | Looking for the measured selectivity ratio of `CC(C)C[C@H](NC(=O)[C@@H](NC(=O)OC(C)(C)C)C(C)C)C(=O)N[C@H](C=O)C[C@@H]1CCNC1=O` , can you help?
Reply | > 30.1
